Entries and their Predicted Hepatic Clearance (Pred. Cl.) values follow.
assay: Microsomal stability, human liver microsomes (predicted hepatic clearance); conditions: predicted from in vitro microsomal stability data
Give the number; mL/min/kg is assumed, so skip it.

Example compounds with recorded Predicted Hepatic Clearance (Pred. Cl.):
O=C(O)c1ccc2nc(Cc3ccc(-c4cccc(OCc5ccc(C(F)F)cc5F)n4)cc3F)n(CC34CC(CO3)C4)c2c1	3.5
C[C@H](C1CC1)n1c(Cc2ccc(-c3cccc(OCc4ccc(C#N)cc4F)n3)cc2F)nc2ccc(C(=O)O)cc21	5
N#Cc1ccc(COc2nc(-c3ccc(Cc4nc5ccc(C(=O)O)cc5n4C[C@@H]4CCO4)cc3F)ccc2F)c(F)c1	2.58
COCCn1c(Cc2ccc(-c3cc(C#N)cc(OCc4ccc(C#N)cc4F)n3)cc2F)nc2ccc(C(=O)O)cc21	3.67
CC(C)(O)[C@H](F)Cn1c(Cc2ccc(-c3cccc(OCc4ccc(C#N)cc4F)n3)cc2F)nc2ccc(C(=O)O)cc21	3

Asked: I'd like to know its Predicted Hepatic Clearance (Pred. Cl.). The compound in question is CS(=O)(=O)N1CC[C@@H]1Cn1c(Cc2ccc(-c3cccc(OCc4ccc(C#N)cc4F)n3)cc2F)nc2ccc(C(=O)O)cc21
Given back: 5.83

Asked: I'd like to know its Predicted Hepatic Clearance (Pred. Cl.). The compound in question is COCCn1c(Cc2cc(F)c(-c3cccc(OCc4ccc(C(F)F)nc4)n3)cc2F)nc2ccc(C(=O)O)cc21
Given back: 1.83

Asked: I'd like to know its Predicted Hepatic Clearance (Pred. Cl.). The compound in question is CCc1cnccc1Cn1c(Cc2ccc(-c3cccc(OCc4ccc(C#N)cc4F)n3)c(F)c2)nc2ccc(C(=O)O)cc21
Given back: 15.2
